- Assay System: Human Vanilloid Receptor 1 (Homo sapiens)
- Construct: expressed in transfected cells; host or cells: HEK 293
- Experimental Details: Human VR1 functional assay using FLIPR, Protocol 1
- Format: cell-based
- Particulars: HEK293, 9 uM, inhibition of capsaicin (EC80)-induced calcium response, HEK 293 cells transfected with hVR1, read-out: h % I (9 uM)
Recorded inhibition at 9 µM for the following compounds

- Compound: "Cc1cccc(N2CCC(C(=O)Nc3ccc4c(c3)NC(=O)CO4)CC2)c1C [Example 145]"
  inhibition at 9 µM [%]: 99.5
- Compound: "CC(C)(C)c1ccc(N2CCC(C(=O)Nc3ccc4c(c3)NC(=O)CO4)CC2)cc1 [Example 146]"
  inhibition at 9 µM [%]: 112
- Compound: "O=C1COc2ccc(NC(=O)C3CCN(c4cc(C(F)(F)F)ccc4C(F)(F)F)CC3)cc2N1 [Example 166]"
  inhibition at 9 µM [%]: 100
- Compound: "O=C1COc2ccc(NC(=O)C3CCN(c4cccc(Br)c4)CC3)cc2N1 [Example 149]"
  inhibition at 9 µM [%]: 91.3
- Compound: "Cc1nc2cc(NC(=O)C3CCN(c4cccc(C(F)(F)F)c4)CC3)ccc2s1 [Example 19]"
  inhibition at 9 µM [%]: 7.5
- Compound: "CC(C)c1ccccc1N1CCC(C(=O)Nc2ccc3c(c2)NC(=O)CO3)CC1 [Example 143]"
  inhibition at 9 µM [%]: 101
- Compound: "N#Cc1c(N2CCC(C(=O)Nc3ccc4c(c3)NC(=O)CO4)CC2)cccc1C(F)(F)F [Example 162]"
  inhibition at 9 µM [%]: 37
- Compound: "O=C(Nc1cnc2ccccc2c1)C1CCN(c2ccccc2Br)CC1 [Example 53]"
  inhibition at 9 µM [%]: 104
- Compound: "O=C1COc2ccc(NC(=O)C3CCN(c4ccccc4Br)CC3)cc2N1 [Example 153]"
  inhibition at 9 µM [%]: 91.7
- Compound: "Cc1ccc(N2CCC(C(=O)Nc3ccc4c(c3)NC(=O)CO4)CC2)cc1C [Example 144]"
  inhibition at 9 µM [%]: 77
- Compound: "O=C(Nc1ccc2c(=O)[nH][nH]c(=O)c2c1)C1CCN(c2cccc(C(F)(F)F)c2)CC1 [Example 31]"
  inhibition at 9 µM [%]: 16
- Compound: "O=C(Nc1ccc2[nH]ccc2c1)C1CCN(c2cccc(C(F)(F)F)c2)CC1 [Example 22]"
  inhibition at 9 µM [%]: 78

###

- Assay System: Human Vanilloid Receptor 1 (Homo sapiens, UniProt Q8NER1)
- Construct: expressed in transfected cells; host or cells: HEK 293
- Sequence (Q8NER1 whole entry): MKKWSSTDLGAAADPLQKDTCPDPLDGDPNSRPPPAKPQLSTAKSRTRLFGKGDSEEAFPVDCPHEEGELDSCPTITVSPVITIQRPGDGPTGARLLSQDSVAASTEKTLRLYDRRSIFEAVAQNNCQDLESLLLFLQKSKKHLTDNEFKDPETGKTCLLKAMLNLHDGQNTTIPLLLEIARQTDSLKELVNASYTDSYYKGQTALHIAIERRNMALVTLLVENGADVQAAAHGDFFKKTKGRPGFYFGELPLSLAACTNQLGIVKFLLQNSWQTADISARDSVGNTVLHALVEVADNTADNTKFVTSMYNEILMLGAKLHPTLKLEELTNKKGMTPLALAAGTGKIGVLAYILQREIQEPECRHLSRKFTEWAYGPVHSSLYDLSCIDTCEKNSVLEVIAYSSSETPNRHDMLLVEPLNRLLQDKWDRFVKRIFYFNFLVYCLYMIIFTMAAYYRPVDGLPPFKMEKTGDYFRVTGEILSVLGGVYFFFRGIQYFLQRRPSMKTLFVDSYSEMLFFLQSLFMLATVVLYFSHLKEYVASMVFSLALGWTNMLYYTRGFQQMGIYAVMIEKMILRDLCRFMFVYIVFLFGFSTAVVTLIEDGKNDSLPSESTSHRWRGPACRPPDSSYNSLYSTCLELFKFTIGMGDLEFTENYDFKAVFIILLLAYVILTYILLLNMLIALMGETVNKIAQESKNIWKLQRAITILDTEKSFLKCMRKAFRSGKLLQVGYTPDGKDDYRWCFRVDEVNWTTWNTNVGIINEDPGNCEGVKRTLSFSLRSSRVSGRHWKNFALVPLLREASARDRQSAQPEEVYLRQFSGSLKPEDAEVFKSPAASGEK
- Experimental Details: Human VR1 functional assay using FLIPR, Protocol 1
- Format: cell-based
- Particulars: HEK293, 9 uM, inhibition of capsaicin (EC80)-induced calcium response, HEK 293 cells transfected with hVR1, read-out: h % I (9 uM)
Recorded inhibition at 9 µM for the following molecules

- Item Smiles: "CC(=O)N1CCc2cc(NC(=O)C3CCN(c4cccc(C(F)(F)F)c4)CC3)ccc21"
  inhibition at 9 µM, %: 13
- Item Smiles: "Cc1cc(Cl)nnc1NC(=O)C1CCN(c2cccc(C(F)(F)F)c2)CC1"
  inhibition at 9 µM, %: 8
- Item Smiles: "O=C(Nc1ccc(O)c2ncccc12)C1CCN(c2cccc(C(F)(F)F)c2)CC1"
  inhibition at 9 µM, %: 13
- Item Smiles: "O=C1COc2ccc(NC(=O)C3CCN(c4cccc(C(F)(F)F)c4)CC3)cc2N1"
  inhibition at 9 µM, %: 94.5
- Item Smiles: "O=C1COc2ccc(NC(=O)C3CCN(c4cccc(Cl)c4)CC3)cc2N1"
  inhibition at 9 µM, %: 88.7

###

- Assay System: Human Vanilloid Receptor 1 (Homo sapiens)
- Construct: expressed in transfected cells; host or cells: HEK 293
- Experimental Details: Human VR1 functional assay using FLIPR, Protocol 1
- Format: cell-based
- Particulars: decreased capsaicin (EC80)-induced calcium response, HEK 293 hVR1, read-out: h IC50
pIC50: −log10 of the molar value.
Recorded pIC50 for the following compounds
Observable: pIC50

- Compound: "O=C1COc2ccc(NC(=O)C3CCN(c4ccccc4F)CC3)cc2N1 [Example 151]"
  Observable: "pIC50"
  Recorded Measurement: 6.17
- Compound: "Cc1ccc(N2CCC(C(=O)Nc3cnc4ccccc4c3)CC2)cc1C [Example 6]"
  Observable: "pIC50"
  Recorded Measurement: 6.46
- Compound: "CC(=O)N1c2cc(NC(=O)C3CCN(c4cccc(C(F)(F)F)c4)CC3)ccc2CC1C (stereo not shown) [Example 37]"
  Observable: "pIC50"
  Recorded Measurement: 5.58
- Compound: "CC(C)c1ccccc1N1CCC(C(=O)Nc2ccc3c(c2)NC(=O)CO3)CC1 [Example 143]"
  Observable: "pIC50"
  Recorded Measurement: 6.74
- Compound: "O=C1COc2ccc(NC(=O)C3CCN(c4cc(F)cc(F)c4)CC3)cc2N1 [Example 154]"
  Observable: "pIC50"
  Recorded Measurement: 6.43
- Compound: "O=C1COc2ccc(NC(=O)C3CCN(c4cc(F)c(F)c(F)c4)CC3)cc2N1 [Example 156]"
  Observable: "pIC50"
  Recorded Measurement: 7.22
- Compound: "O=C1COc2ccc(NC(=O)C3CCN(c4cccc(C(F)(F)F)c4)CC3)cc2N1 [Example 34]"
  Observable: "pIC50"
  Recorded Measurement: 6.68
- Compound: "CC(C)(C)c1ccc(N2CCC(C(=O)Nc3ccc4c(c3)NC(=O)CO4)CC2)cc1 [Example 146]"
  Observable: "pIC50"
  Recorded Measurement: 7.05
- Compound: "O=C(Nc1ccc2c(c1)OCCCO2)C1CCN(c2cccc(C(F)(F)F)c2)CC1 [Example 28]"
  Observable: "pIC50"
  Recorded Measurement: 5.66
- Compound: "O=C1COc2ccc(NC(=O)C3CCN(c4c(F)c(F)c(Br)c(F)c4F)CC3)cc2N1 [Example 164]"
  Observable: "pIC50"
  Recorded Measurement: 6.96
- Compound: "COc1cccc(N2CCC(C(=O)Nc3ccc4c(c3)NC(=O)CO4)CC2)c1 [Example 150]"
  Observable: "pIC50"
  Recorded Measurement: 5.85
- Compound: "CC(=O)N1CCc2c(NC(=O)C3CCN(c4cccc(C(F)(F)F)c4)CC3)cccc21 [Example 46]"
  Observable: "pIC50"
  Recorded Measurement: 5.92
- Compound: "O=C(Nc1cccc2[nH]ccc12)C1CCN(c2cccc(C(F)(F)F)c2)CC1 [Example 8]"
  Observable: "pIC50"
  Recorded Measurement: 6.64
- Compound: "O=C1COc2ccc(NC(=O)C3CCN(c4cccc(Br)c4)CC3)cc2N1 [Example 149]"
  Observable: "pIC50"
  Recorded Measurement: 6.48
- Compound: "CC(=O)N1CCc2ccc(NC(=O)C3CCN(c4cccc(C(F)(F)F)c4)CC3)cc21 [Example 16]"
  Observable: "pIC50"
  Recorded Measurement: 6.10
- Compound: "O=C(Nc1cnc2ccccc2c1)C1CCN(c2cccc(-c3ccccc3)c2)CC1 [Example 3]"
  Observable: "pIC50"
  Recorded Measurement: 4.81
- Compound: "CCc1ccccc1N1CCC(C(=O)Nc2ccc3c(c2)NC(=O)CO3)CC1 [Example 142]"
  Observable: "pIC50"
  Recorded Measurement: 6.82
- Compound: "O=C(Nc1cnc2ccccc2c1)C1CCN(c2cccc(C(F)(F)F)c2)CC1 [Example 2]"
  Observable: "pIC50"
  Recorded Measurement: 6.22
- Compound: "Cc1ccc(N2CCC(C(=O)Nc3ccc4c(c3)NC(=O)CO4)CC2)cc1C [Example 144]"
  Observable: "pIC50"
  Recorded Measurement: 6.42
